test system: Staphylococcus aureus; experiment: MIC against clinical isolates; format: cell-based; settings: clinical isolate MS 8596; unit assumed
recorded_endpoint: MIC (µg/mL)
Provide only the numeric value, understood in µg/mL.

Look over these answered cases.
compound: CCCCCCN1CCN(C(=O)N[C@@H](C(=O)N[C@@H]2C(=O)N3[C@@H]2SC(C)(C)[C@@H]3C(=O)O)c2ccccc2)C(=O)C1=O (single isomer, unassigned) [compound 46]
recorded_endpoint: MIC
value_measured: 3.13
--
compound: CN1CCN(C(=O)NC(C(=O)NC2C(=O)N3C(C(=O)O)=C(CSc4nnnn4C)CSC23)c2ccccc2)C(=O)C1=O (single isomer, unassigned) [compound 63]
recorded_endpoint: MIC
value_measured: 1.56
--
compound: CC(=O)N1CCN(C(=O)N[C@@H](C(=O)N[C@@H]2C(=O)N3[C@@H]2SC(C)(C)[C@@H]3C(=O)O)c2ccccc2)C(=O)C1 [compound 1]
recorded_endpoint: MIC
value_measured: 3.13

If you can, please state the reported MIC value of CCN1CCN(C(=O)N[C@@H](C(=O)N[C@@H]2C(=O)N3[C@@H]2SC(C)(C)[C@@H]3C(=O)O)c2ccccc2)C(=O)C1=O [compound 36] .
3.13

Item CC(=O)OCC1=C(C(=O)O)N2C(=O)C(NC(=O)C(NC(=O)N3CCN(C)C(=O)C3=O)c3ccccc3)C2SC1 (single isomer, unassigned) [compound 60] has what recorded MIC?
0.78

Which MIC value belongs to CCCCN1CCN(C(=O)N[C@@H](C(=O)N[C@@H]2C(=O)N3[C@@H]2SC(C)(C)[C@@H]3C(=O)O)c2ccccc2)C(=O)C1=O (single isomer, unassigned) [compound 39] ?
1.57

Dear colleague, I am looking for the recorded MIC of the following compound: CCCCCN1CCN(C(=O)N[C@@H](C(=O)N[C@@H]2C(=O)N3[C@@H]2SC(C)(C)[C@@H]3C(=O)O)c2ccccc2)C(=O)C1=O (single isomer, unassigned) [compound 45]
3.13

Fill in: MIC of CC(C)N1CCN(C(=O)N[C@@H](C(=O)N[C@@H]2C(=O)N3[C@@H]2SC(C)(C)[C@@H]3C(=O)O)c2ccccc2)C(=O)C1=O (single isomer, unassigned) [compound 40] is ___
3.13

I would be grateful if you could share the reported MIC for Cc1nnc(SCC2=C(C(=O)O)N3C(=O)C(NC(=O)C(NC(=O)N4CCN(C)C(=O)C4=O)c4ccccc4)C3SC2)s1 (single isomer, unassigned) [compound 62] .
0.78

* * *

test system: β-lactamase; assay: Resistant activity against β-lactamase, iodometric assay; type: biochemical, Pseudomonas aeruginosa GN 238; details: relative to Potassium Penicillin G = 100
Below is a list of entries, each paired with its recorded Relative activity value.
Expressed in %, but write only the number.

For orientation, consider the following solved cases.
molecule: CN1CCN(C(=O)N[C@@H](C(=O)N[C@@H]2C(=O)N3[C@@H]2SC(C)(C)[C@@H]3C(=O)O)c2ccccc2)C(=O)C1=O (single isomer, unassigned)
value_measured: 15
--
molecule: CCCCCCCCN1CCN(C(=O)N[C@@H](C(=O)N[C@@H]2C(=O)N3[C@@H]2SC(C)(C)[C@@H]3C(=O)O)c2ccccc2)CC1=O
value_measured: 3
--
molecule: CCCN1CCN(C(=O)N[C@@H](C(=O)N[C@@H]2C(=O)N3[C@@H]2SC(C)(C)[C@@H]3C(=O)O)c2ccccc2)C(=O)C1=O (single isomer, unassigned)
value_measured: 15
--
molecule: CCCCCCCCN1CCN(C(=O)N[C@@H](C(=O)N[C@@H]2C(=O)N3[C@@H]2SC(C)(C)[C@@H]3C(=O)O)c2ccccc2)C(=O)C1=O (single isomer, unassigned)
value_measured: 1
--
molecule: CCCCCCN1CCN(C(=O)N[C@@H](C(=O)N[C@@H]2C(=O)N3[C@@H]2SC(C)(C)[C@@H]3C(=O)O)c2ccccc2)C(=O)C1=O (single isomer, unassigned)
value_measured: 12
--
molecule: CCCCCN1CCN(C(=O)N[C@@H](C(=O)N[C@@H]2C(=O)N3[C@@H]2SC(C)(C)[C@@H]3C(=O)O)c2ccccc2)C(=O)C1=O (single isomer, unassigned)
value_measured: 16
--
molecule: CCN1CCN(C(=O)N[C@@H](C(=O)N[C@@H]2C(=O)N3[C@@H]2SC(C)(C)[C@@H]3C(=O)O)c2ccccc2)C(=O)C1=O
value_measured: 14
--
molecule: CC(C)N1CCN(C(=O)N[C@@H](C(=O)N[C@@H]2C(=O)N3[C@@H]2SC(C)(C)[C@@H]3C(=O)O)c2ccccc2)C(=O)C1=O (single isomer, unassigned)
value_measured: 15

Enter reported Relative activity observed with β-lactamase for CC1(C)S[C@@H]2[C@H](NC(=O)C(C(=O)O)c3ccccc3)C(=O)N2[C@H]1C(=O)O (stereo partly drawn) [Sodium Carbenicillin, SodiumCarbenicillin, reference compound]
116
